Assay: chemical genetic growth profiling, strain panel (AID 1159580);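 note: tested at 20 µM; growth read once vehicle control cultures reached saturation at 30 °C; 1 = growth at the plate median or of vehicle wells; lower values mean less growth of the strain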
Settings: S. cerevisiae deletion strains, growth OD, locus YPR119W, strain clb2, stronger effect = lower value
The campaign covered roughly 5,500 compounds. About 2,000 (36%) were called active. Not shown: some 18% with an inconclusive outcome. The list shows a part of the results.
outcome-measure: normalized growth

molecule=Cc1c(O)cc(O)c2c(=O)c(-c3ccc(O)cc3)coc12 observed_value=1
molecule=CCC1(c2ccccc2)C(=O)NCNC1=O observed_value=0.996
molecule="O=C(O)C1C(O)CCC2CN3CCc4c([nH]c5ccccc45)C3CC21 (configuration not stated)" observed_value=1.01
molecule=CC(C)(C)CC(C)(C)c1ccc(OCCOCC[N+](C)(C)Cc2ccccc2)cc1 observed_value=0.984
molecule="COC(=O)C1[C@H]2C[C@H]3c4[nH]c5ccccc5c4CCN3C[C@@H]2CC[C@@H]1O (some centres not stated)" observed_value=1.02
molecule=C1CCc2nnnn2CC1 observed_value=1
molecule="CC1(C)C2CC[C@]3(C)C(C(=O)C=C4[C@H]5C[C@@](C)(C(=O)O)CC[C@]5(C)CC[C@]43C)[C@@]2(C)CC[C@@H]1O (some centres not stated)" observed_value=1.02
molecule="CCC1(C)CC(=O)NC1=O (configuration not stated)" observed_value=1.01
molecule=CC(C)=CCc1c(O)cc2oc(C)cc(=O)c2c1O observed_value=0.995
molecule=OCCN(CCO)c1nc(N2CCCCC2)c2nc(N(CCO)CCO)nc(N3CCCCC3)c2n1 observed_value=0.994
molecule="CC(=O)O[C@]1(C(C)=O)CCC2C3C=C(C)C4=CC(=O)CCC4(C)C3CCC21C (some centres not stated)" observed_value=0.983
molecule=Cc1c(N(C)C)c(=O)n(-c2ccccc2)n1C observed_value=0.994
molecule=O=[N+]([O-])O[C@H]1CO[C@H]2[C@@H]1OC[C@H]2O[N+](=O)[O-] observed_value=1.02
molecule=COC(=O)COc1ccc(Cl)cc1Cl observed_value=1.01
molecule="COC(=O)[C@@H]1C(O)CC[C@H]2CN3CCc4c([nH]c5ccccc45)[C@@H]3C[C@@H]21 (some centres not stated)" observed_value=0.994
molecule="O=C(O)C1CC([C@@H]2CCCCN2)CN2CCCCC12 (some centres not stated)" observed_value=0.987
molecule=CC(C)[N+](C)(CCOC(=O)C1c2ccccc2Oc2ccccc21)C(C)C observed_value=0.996

----------
Test: chemical genetic growth profiling, strain panel (AID 1159580)
Settings: S. cerevisiae deletion strains, growth OD, locus YNL271C, strain bni1, stronger effect = lower value
Among all 5,500 compounds or so, about 2,000 (36%) were called active. Roughly 18% stayed inconclusive and do not appear here. The list shows a part of the results.
outcome-measure: normalized growth

compound=COC(=O)c1c(Cl)c(Cl)c(C(=O)OC)c(Cl)c1Cl observed_value=1.01
compound="COc1ccc(CC2c3cc(OC)c(OC)cc3CCN2C)cc1OC (stereo unspecified)" observed_value=0.987
compound="CC1(C)C2CC[C@]3(C)C(C(=O)C=C4[C@H]5C[C@@](C)(C(=O)O)CC[C@]5(C)CC[C@]43C)[C@@]2(C)CC[C@@H]1O (stereo partly specified)" observed_value=1.01
compound="CN1C2CC3C[C@H]1C(O3)C2O (stereo partly specified)" observed_value=1.03
compound=COc1ccc(-c2coc3c(OC)c(OC)cc(O)c3c2=O)cc1 observed_value=0.98
compound="O=C(O)C1C(O)CCC2CN3CCc4c([nH]c5ccccc45)C3CC21 (stereo unspecified)" observed_value=1.01
compound=CC(=C(CCOP(=O)(O)O)SC(=O)c1ccccc1)N(C=O)Cc1cnc(C)nc1N observed_value=1.02
compound=NC(=O)N1c2ccccc2CC(=O)c2ccccc21 observed_value=0.974
compound=CC(C)=CCc1c(O)cc(C)oc1=O observed_value=0.986
compound="C=C1CC[C@H](O)C/C1=C/C=C1\\CCC[C@]2(C)C([C@H](C)/C=C/[C@H](C)C(C)C)CC[C@@H]12 (stereo partly specified)" observed_value=0.967
compound=N#Cc1c(Cl)c(Cl)c(Cl)c(C#N)c1Cl observed_value=0.974

----------
Assay: chemical genetic growth profiling, strain panel (AID 1159580)
Conditions: S. cerevisiae deletion strains, growth OD, locus YJR066W, strain TOR1, stronger effect = lower value
Hit rate of the full screen: of about 5,500 compounds, about 2,000 (36%) were called active. Roughly 18% stayed inconclusive and do not appear here. Some of the results follow.
outcome-measure: normalized growth

molecule=CCC1(c2ccccc2)C(=O)NCNC1=O observed_value=0.967
molecule=O=C(/C=C/C=C/c1ccc2c(c1)OCO2)N1CCCCC1 observed_value=0.955
molecule=COc1ccc2cc1Oc1ccc(cc1)C[C@H]1c3cc(c(OC)cc3CCN1C)Oc1c(OC)c(OC)cc3c1[C@H](C2)N(C)CC3 observed_value=0.955
molecule="CCOc1ccc(NC(=O)CC(C)O)cc1 (stereo not given)" observed_value=0.94
molecule="CCC1(c2ccc(N)cc2)CCC(=O)NC1=O (stereo not given)" observed_value=0.973
molecule=O=C(O)/C=C/C=C/c1ccc2c(c1)OCO2 observed_value=0.873
molecule="CC1(C)C2CC[C@]3(C)C(C(=O)C=C4[C@@H]5C[C@@](C)(C(=O)O)CC[C@]5(C)CC[C@]43C)[C@@]2(C)CC[C@@H]1OC(=O)CCC(=O)O (stereo not given in full)" observed_value=1.01
molecule=CCCCOc1ccc(CC(=O)NO)cc1 observed_value=0.976
molecule=CC(C)(N=NC(C)(C)C(=N)N)C(=N)N observed_value=0.896
molecule=CC(C)=CCc1c(O)cc2oc(C)cc(=O)c2c1O observed_value=0.941
molecule=COc1ccc2cc1Oc1ccc(cc1)C[C@H]1c3c(cc4c(c3Oc3cc5c(cc3OC)CCN(C)[C@@H]5C2)OCO4)CCN1C observed_value=0.987
molecule=COc1ccc(-c2coc3c(O)c(O)c(OC)cc3c2=O)cc1 observed_value=0.912
molecule=COC(=O)COc1ccc(Cl)cc1Cl observed_value=0.975
molecule=COc1ccc(NC(=O)O/N=C(/N)c2ccc(Oc3c(Cl)cncc3Cl)cc2)cc1 observed_value=0.69
molecule="CC1(C)C2CC[C@]3(C)C(C(=O)C=C4[C@H]5C[C@@](C)(C(=O)O)CC[C@]5(C)CC[C@]43C)[C@@]2(C)CC[C@@H]1O (stereo not given in full)" observed_value=0.96

----------
Some compounds, each annotated with its measured normalized growth.
Experiment: chemical genetic growth profiling, strain panel (AID 1159580);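 note: tested at 20 µM; growth read once vehicle control cultures reached saturation at 30 °C; 1 = growth at the plate median or of vehicle wells; lower values mean less growth of the strain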
Conditions: S. cerevisiae deletion strains, growth OD, locus YDR137W, strain rgp1, stronger effect = lower value
The campaign covered roughly 5,500 compounds. About 2,000 (36%) were called active. Not shown: some 18% with an inconclusive outcome. Some of the results follow.
outcome-measure: normalized growth

compound="COC1C(O)C(O)C(O)[C@@H](O)C1O (some centres not stated)" observed_value=0.98
compound=O=C(O)c1ccccc1OP(=O)(O)O observed_value=0.987
compound=C[C@@H](N)CO observed_value=0.979
compound=COc1ccc2cc1Oc1ccc(cc1)C[C@H]1c3cc(c(OC)cc3CCN1C)Oc1c(OC)c(OC)cc3c1[C@H](C2)N(C)CC3 observed_value=0.998
compound=CNc1ccccc1C(=O)N1CCc2c([nH]c3ccccc23)C1=O observed_value=0.991
compound="COC(=O)[C@@H]1C(O)CC[C@H]2CN3CCc4c([nH]c5ccccc45)[C@@H]3C[C@@H]21 (some centres not stated)" observed_value=1.02
compound=CC(=O)OCC(CCn1cnc2cnc(N)nc21)COC(C)=O observed_value=1.01

----------
Some molecules, each annotated with its measured normalized growth.
Test: chemical genetic growth profiling, strain panel (AID 1159580);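 note: tested at 20 µM; growth read once vehicle control cultures reached saturation at 30 °C; 1 = growth at the plate median or of vehicle wells; lower values mean less growth of the strain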
Conditions: S. cerevisiae deletion strains, growth OD, locus YER110C, stronger effect = lower value
Screen size: about 5,500 compounds; about 2,000 (36%) were called active. Roughly 18% stayed inconclusive and do not appear here. The list shows a part of the results.
outcome-measure: normalized growth

molecule="CC1(O)/C=C/C=C(\\CO)C2CC(C)(C)C2(O)CC1 (centres undefined)" observed_value=0.998
molecule=COc1ccc(-c2coc3c(OC)c(OC)ccc3c2=O)cc1 observed_value=1.01
molecule=CC(=O)OCC(CCn1cnc2cnc(N)nc21)COC(C)=O observed_value=0.974
molecule=Cc1cc(=O)c2c(O)cc(O)c(C)c2o1 observed_value=0.968

----------
Experiment: chemical genetic growth profiling, strain panel (AID 1159580);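 note: tested at 20 µM; growth read once vehicle control cultures reached saturation at 30 °C; 1 = growth at the plate median or of vehicle wells; lower values mean less growth of the strain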
Details: S. cerevisiae deletion strains, growth OD, locus YGR252W, strain gcn5
Among all 5,500 compounds or so, about 2,000 (36%) were called active. Inconclusive results (about 18%) are left out. Cut-off read from the data, not from the text of the source: active = normalized growth mostly below about 0.91 (no sharp cut-off); inconclusive = no clear call, values can overlap the other calls; inactive = mostly above about 0.92. The list shows a part of the results.
Possible outcomes: active, inactive

compound=O=[N+]([O-])O[C@H]1CO[C@H]2[C@@H]1OC[C@H]2O[N+](=O)[O-] assigned_label=active
compound="CCC1(C)CC(=O)NC1=O (centres undefined)" assigned_label=inactive
compound=Cc1ccc(O)cc1 assigned_label=inactive
compound="CC(=O)O[C@@](C)(CCC=C(C)C)C1CC=C(C)CC1 (some centres undefined)" assigned_label=inactive
compound=c1ccc(CN(CC2=NCCN2)c2ccccc2)cc1 assigned_label=inactive
compound=N#Cc1c(Cl)c(Cl)c(Cl)c(C#N)c1Cl assigned_label=inactive
compound=CCCCOc1ccc(OCCCN2CCOCC2)cc1 assigned_label=active
compound=C/C=C(/C(=C/C)c1ccc(O)cc1)c1ccc(O)cc1 assigned_label=active
compound=CCC1(c2ccccc2)C(=O)NCNC1=O assigned_label=inactive
